test: Oral bioavailability, AUC, half-life, plasma, brain and liver concentration in mice at 2 mg/kg; format: in vivo; conditions: mouse, liver/plasma, 2 mg/kg oral, 1 h post administration
experimental endpoint: Kp at 1 h
Just the number.

May I ask what Kp at 1 h has been recorded for "Nc1nc2c(cnn2CCc2ccc(C(=O)O)cc2)c2nc(-c3ccco3)nn12" ?
7

----------
assay: Oral bioavailability, AUC, half-life, plasma, brain and liver concentration in mice at 2 mg/kg; assay type: in vivo; details: mouse, liver/plasma, 2 mg/kg oral, 6 h post administration
experimental endpoint: Kp at 6 h
Keep the answer to the number alone.

If you can, please state the reported Kp at 6 h value of Nc1nc2c(cnn2CCc2ccc(C(=O)O)cc2)c2nc(-c3ccco3)nn12 [HZ10126] .
24
